testedTarget: T1, Full length recombinant HBcAg (rHBcAg) encompassing residues 1-183 (hepatitis B virus, UniProt P03146 1-183)
T1 construct: range 1-183; also called hepatitis B virus core antigen
T1 sequence (P03146 whole entry, the tested form may be a part): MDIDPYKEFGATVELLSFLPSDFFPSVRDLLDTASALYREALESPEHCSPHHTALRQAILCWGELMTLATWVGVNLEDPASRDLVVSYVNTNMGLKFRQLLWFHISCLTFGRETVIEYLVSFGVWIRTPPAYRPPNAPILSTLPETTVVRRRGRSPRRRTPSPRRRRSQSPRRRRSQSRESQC
assayDetails: EIA, support-bound peptide, HBcAg 0.2 ug/well
parameter: OD at 405 nm (OD)

# binder, assayResult
data = [
    ("EQGLEWIGWIFPGEGSTEYN (also called Peptide # 5) [EQGLEWIGWIFPGEGSTEYN (SEQ. ID. No. 8)]", 0.256),
    ("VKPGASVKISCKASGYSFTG (also called Peptide # 25) [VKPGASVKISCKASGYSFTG (SEQ. ID. No. 28)]", 0.845),
    ("AVYFCARGDYDYYRRYFDLW (also called Peptide # 10) [AVYFCARGDYDYYRRYFDLW (SEQ. ID. No. 13)]", 0.304),
    ("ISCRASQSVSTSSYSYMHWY [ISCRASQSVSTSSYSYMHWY (SEQ. ID. No. 17)]", 0.449),
]
